system: U373 MG; test: Concentration required for 50% growth inhibition of human U373 cancer cell lines after 3 days of culture; type: functional, cell-based, U-373MG ATCC; conditions: 72 h
EXPERIMENTAL_READOUT: pIC50
Note on units: pIC50 is unitless, being -log10 of a concentration expressed in mol/L.

C[C@@H]1C[C@@]2(NC(=O)CS2)C2(O)O[C@@H]3C[C@@]4(CO)[C@@H](CC[C@@H]5[C@@H]4CC[C@]4(C)[C@@H](C6=CC(=O)OC6)CC[C@]54CO)C[C@H]3O[C@@H]2O1 (stereo partly specified): 8.05
C[C@@H]1C[C@@]2(NC(=O)CS2)C2(O)O[C@@H]3C[C@@]4(COS(C)(=O)=O)[C@@H](CC[C@@H]5[C@@H]4CC[C@]4(C)[C@@H](C6=CC(=O)OC6)CC[C@]54CO)C[C@H]3O[C@@H]2O1 (stereo partly specified): 5.14
C[C@@H]1C[C@@]2(NC(=O)CS2)C2(O)O[C@@H]3C[C@@]4(COC(=O)c5ccccc5)[C@@H](CC[C@@H]5[C@@H]4CC[C@]4(C)[C@@H](C6=CC(=O)OC6)CC[C@]54CO)C[C@H]3O[C@@H]2O1 (stereo partly specified): 5.38
C[C@@H]1C[C@@]2(N=C(N)CS2)C2(O[Si](C)(C)C)O[C@@H]3C[C@@]4(CO)[C@@H](CC[C@@H]5[C@@H]4CC[C@]4(C)[C@@H](C6=CC(=O)OC6)CC[C@]54CO[Si](C)(C)C)C[C@H]3O[C@@H]2O1 (stereo partly specified): 6.03
CC(=O)CCC(=O)OC[C@]12C[C@H]3OC4(O)[C@@H](O[C@H](C)C[C@@]45NC(=O)CS5)O[C@@H]3C[C@@H]1CC[C@@H]1[C@@H]2CC[C@]2(C)[C@@H](C3=CC(=O)OC3)CC[C@]12CO (stereo partly specified): 5.49
C[C@@H]1C[C@@]2(N[C@H](CC(=O)c3ccccc3)CS2)C2(O)O[C@@H]3C[C@@]4(CO)[C@@H](CC[C@@H]5[C@@H]4CC[C@]4(C)[C@@H](C6=CC(=O)OC6)CC[C@]54CO)C[C@H]3O[C@@H]2O1 (stereo partly specified): 7.47
C[C@@H]1C[C@@]2(NCCS2)[C@]2(O)O[C@@H]3C[C@@]4(C=O)[C@@H](CC[C@@H]5[C@@H]4CC[C@]4(C)[C@@H](C6=CC(=O)OC6)CC[C@]54O)C[C@H]3O[C@@H]2O1: 7.49
Cc1ccc(S(=O)(=O)OC[C@]23C[C@H]4OC5(O)[C@@H](O[C@H](C)C[C@@]56NC(=O)CS6)O[C@@H]4C[C@@H]2CC[C@@H]2[C@@H]3CC[C@]3(C)[C@@H](C4=CC(=O)OC4)CC[C@]23CO)cc1 (stereo partly specified): 6.49
C[C@@H]1C[C@@]2(N[C@@H](CC(=O)c3ccccc3)CS2)C2(O)O[C@@H]3C[C@@]4(C=O)[C@@H](CC[C@@H]5[C@@H]4CC[C@]4(C)[C@@H](C6=CC(=O)OC6)CC[C@]54CO)C[C@H]3O[C@@H]2O1 (stereo partly specified): 7.08
COC(=O)OC[C@]12C[C@H]3OC4(O)[C@@H](O[C@H](C)C[C@@]45N=C(N)CS5)O[C@@H]3C[C@@H]1CC[C@@H]1[C@@H]2CC[C@]2(C)[C@@H](C3=CC(=O)OC3)CC[C@]12CO (stereo partly specified): 6.49

Query: Would you mind telling me what pIC50 value was observed for CC(O)CCC(=O)OC[C@]12C[C@H]3OC4(O)[C@@H](O[C@H](C)C[C@@]45NC(=O)CS5)O[C@@H]3C[C@@H]1CC[C@@H]1[C@@H]2CC[C@]2(C)[C@@H](C3=CC(=O)OC3)CC[C@]12CO (stereo partly specified) ?
Response: 5.92

Query: What pIC50 value was documented for this compound, C[C@@H]1C[C@@]2(N[C@H](CC(=O)c3ccccc3)CS2)C2(O)O[C@@H]3C[C@@]4(C=O)[C@@H](CC[C@@H]5[C@@H]4CC[C@]4(C)[C@@H](C6=CC(=O)OC6)CC[C@]54CO)C[C@H]3O[C@@H]2O1 (stereo partly specified) ?
Response: 7.39

Query: Look at this compound and give its reported pIC50. Cc1ccc(S(=O)(=O)OC[C@]23C[C@H]4OC5(O)[C@@H](O[C@H](C)C[C@@]56N=C(N)CS6)O[C@@H]4C[C@@H]2CC[C@@H]2[C@@H]3CC[C@]3(C)[C@@H](C4=CC(=O)OC4)CC[C@]23CO)cc1 (stereo partly specified)
Response: 5.00

Query: State the recorded pIC50 for this entry: C[C@@H]1C[C@@]2(N=C(N)CS2)[C@]2(O)O[C@@H]3C[C@@]4(C=O)[C@@H](CC[C@@H]5[C@@H]4CC[C@]4(C)[C@@H](C6=CC(=O)OC6)CC[C@]54O)C[C@H]3O[C@@H]2O1
Response: 7.40

---

tested on: HCT-15; assay: Concentration required for 50% growth inhibition of human HCT-15 cancer cell lines after 3 days of culture; type: functional, cell-based; conditions: HCT-15, 72 h
Recorded measurements of pIC50, one per entry
// pIC50 is dimensionless: -log10 of concentration (M)

A selection of reference data follows.
C[C@@H]1C[C@@]2(NCCS2)[C@]2(O)O[C@@H]3C[C@@]4(C=O)[C@@H](CC[C@@H]5[C@@H]4CC[C@]4(C)[C@@H](C6=CC(=O)OC6)CC[C@]54O)C[C@H]3O[C@@H]2O1: 7.57
C[C@@H]1C[C@@]2(NC(=O)CS2)C2(O[Si](C)(C)C)O[C@@H]3C[C@@]4(CO[Si](C)(C)C)[C@@H](CC[C@@H]5[C@@H]4CC[C@]4(C)[C@@H](C6=CC(=O)OC6)CC[C@]54CO[Si](C)(C)C)C[C@H]3O[C@@H]2O1 (stereo partly drawn): 5.57
C[C@@H]1C[C@@]2(N[C@H](CC(O)c3ccccc3)CS2)C2(O)O[C@@H]3C[C@@]4(CO)[C@@H](CC[C@@H]5[C@@H]4CC[C@]4(C)[C@@H](C6=CC(=O)OC6)CC[C@]54CO)C[C@H]3O[C@@H]2O1 (stereo partly drawn): 7.51

Query: Which pIC50 is reported for this compound? Cc1ccc(S(=O)(=O)OC[C@]23C[C@H]4OC5(O)[C@@H](O[C@H](C)C[C@@]56NC(=O)CS6)O[C@@H]4C[C@@H]2CC[C@@H]2[C@@H]3CC[C@]3(C)[C@@H](C4=CC(=O)OC4)CC[C@]23CO)cc1 (stereo partly drawn)
Response: 6.42

Query: Please look up its pIC50: C[C@@H]1C[C@@]2(N[C@H](CC(=O)c3ccccc3)CS2)C2(O)O[C@@H]3C[C@@]4(C=O)[C@@H](CC[C@@H]5[C@@H]4CC[C@]4(C)[C@@H](C6=CC(=O)OC6)CC[C@]54CO)C[C@H]3O[C@@H]2O1 (stereo partly drawn)
Response: 7.31

Query: Please give the measured pIC50 for this compound: CC(=O)CCC(=O)OC[C@]12C[C@H]3OC4(O)[C@@H](O[C@H](C)C[C@@]45NC(=O)CS5)O[C@@H]3C[C@@H]1CC[C@@H]1[C@@H]2CC[C@]2(C)[C@@H](C3=CC(=O)OC3)CC[C@]12CO (stereo partly drawn)
Response: 5.49

---

Reported pIC50 values follow for various compounds
molecular target: Sodium/potassium-transporting ATPase subunit alpha-1 (Sus scrofa, UniProt P05024); assay: In vitro inhibitory activity against porcine Na+/K+-ATPase
In textbook form, pIC50 equals minus log to base ten of the concentration in mol/L.

C[C@@H]1C[C@@]2(N=C(N)CS2)C2(O[Si](C)(C)C)O[C@@H]3C[C@@]4(CO[Si](C)(C)C)[C@@H](CC[C@@H]5[C@@H]4CC[C@]4(C)[C@@H](C6=CC(=O)OC6)CC[C@]54CO)C[C@H]3O[C@@H]2O1 (some centres undefined): 5.39

Okay, next one:
Query: Data request, read-out pIC50, for C[C@@H]1C[C@@]2(N=C(N)CS2)C2(O[Si](C)(C)C)O[C@@H]3C[C@@]4(CO)[C@@H](CC[C@@H]5[C@@H]4CC[C@]4(C)[C@@H](C6=CC(=O)OC6)CC[C@]54CO[Si](C)(C)C)C[C@H]3O[C@@H]2O1 (some centres undefined)
Response: 5.72

---

tested on: HCT-15; assay: Concentration required for 50% growth inhibition of human HCT-15 cancer cell lines after 3 days of culture; type: functional, cell-based; conditions: HCT-15, 72 h
Entries annotated with measured IC50
Number in nM, nothing else.

CC(=O)OC[C@]12C[C@H]3OC4(O)[C@@H](O[C@H](C)C[C@@]45NC(=O)CS5)O[C@@H]3C[C@@H]1CC[C@@H]1[C@@H]2CC[C@]2(C)[C@@H](C3=CC(=O)OC3)CC[C@]12CO (stereo partly drawn): 4430
C[C@@H]1C[C@@]2(NCCS2)C2(O)O[C@@H]3C[C@@]4(CO)[C@@H](CC[C@@H]5[C@@H]4CC[C@]4(C)[C@@H](C6=CC(=O)OC6)CC[C@]54CO)C[C@H]3O[C@@H]2O1 (stereo partly drawn): 21
COC(=O)OC[C@]12C[C@H]3OC4(O)[C@@H](O[C@H](C)C[C@@]45N=C(N)CS5)O[C@@H]3C[C@@H]1CC[C@@H]1[C@@H]2CC[C@]2(C)[C@@H](C3=CC(=O)OC3)CC[C@]12CO (stereo partly drawn): 442
C[C@@H]1C[C@@]2(N[C@H](CC(=O)c3ccccc3)CS2)C2(O)O[C@@H]3C[C@@]4(CO)[C@@H](CC[C@@H]5[C@@H]4CC[C@]4(C)[C@@H](C6=CC(=O)OC6)CC[C@]54CO)C[C@H]3O[C@@H]2O1 (stereo partly drawn): 34
C[C@@H]1C[C@@]2(N=C(N)CS2)C2(O[Si](C)(C)C)O[C@@H]3C[C@@]4(CO)[C@@H](CC[C@@H]5[C@@H]4CC[C@]4(C)[C@@H](C6=CC(=O)OC6)CC[C@]54CO[Si](C)(C)C)C[C@H]3O[C@@H]2O1 (stereo partly drawn): 454

Turning now to a further record.
Query: # get_value(readout= IC50, system= HCT-15) for C[C@@H]1C[C@@]2(N=C(N)CS2)C2(O[Si](C)(C)C)O[C@@H]3C[C@@]4(CO[Si](C)(C)C)[C@@H](CC[C@@H]5[C@@H]4CC[C@]4(C)[C@@H](C6=CC(=O)OC6)CC[C@]54CO)C[C@H]3O[C@@H]2O1 (stereo partly drawn)
Response: 3660
